Numbers sourced from patent US5190741A.

- measurement_protocol: Tissue distribution in Swiss nu/nu SSCUP mice bearing Beu
- Assay type: in vivo, human
- experimental_setup: mouse, muscle, iv, 3 umol/animal; 8 h; read-out: muscle % ID/g
measured_parameter: tissue uptake at 8 h (%ID/g)
// return numeric value only (unit: %ID/g, not printed)

Q: Which tissue uptake at 8 h is reported for this compound? CCN(CC)CCNC(=O)c1ccc(I)cc1 [Derivative A, N-(2-diethylaminoethyl) 4-iodo benzamide]
Result: 0.08

====

- measurement_protocol: Tissue distribution in C57 BL6 mice bearing B16
- Type: in vivo, mouse
- experimental_setup: mouse, submaxillary glands, iv, 3 umol/animal; 12 h; read-out: submaxillary glands % ID/g
measured_parameter: tissue uptake at 12 h (%ID/g)
// return numeric value only (unit: %ID/g, not printed)

Q: Which tissue uptake at 12 h is reported for this compound? CCN(CC)CCNC(=O)c1ccc(I)cc1 [Derivative A, N-(2-diethylaminoethyl) 4-iodo benzamide]
Result: 0.44
